Recorded MIC by entry
System: C. sporogenes ATCC 19404
protocol_description: Antianaerobic activity, MIC by standard broth dilution method (Table II)
Format: cell-based
run_conditions: Clostridium sporogenes, ATCC19404, 24 h, Test 3; read-out: Minimal Inhibitory Concentration (MIC)
Counter-ions that a name gives are not always drawn.

molecule	system	result_units	MIC
CC(C(=NNc1ccc(Cl)cc1Cl)c1ccc(Cl)cc1)n1ccnc1 (stereo not shown) [HC-433, hydrochloride]	C. sporogenes ATCC 19404	µg/mL	2.5
Cl.FC(F)(F)c1cccc(C(Cn2ccnc2)=NNc2c(Cl)cccc2Cl)c1 [HC474]	C. sporogenes ATCC 19404	µg/mL	5
Clc1ccc(/C(Cn2ccnc2)=N/Nc2c(Cl)cccc2Cl)s1 [HC390, hydrochloride]	C. sporogenes ATCC 19404	µg/mL	7.5
Cl.Clc1ccc(NN=C(Cn2ccnc2)c2ccccc2Cl)c(Cl)c1 [HC316]	C. sporogenes ATCC 19404	µg/mL	2.5
Cl.Clc1ccc(C(Cn2ccnc2)=NNc2c(Cl)cc(Cl)cc2Cl)c(Cl)c1 [HC-420]	C. sporogenes ATCC 19404	µg/mL	2.5
Cl.Clc1ccc(Cl)c(NN=C(Cn2ccnc2)c2ccccc2Cl)c1 [HC-469]	C. sporogenes ATCC 19404	µg/mL	1
Cl.FC(F)(F)c1ccc(C(Cn2ccnc2)=NNc2c(Cl)cccc2Cl)cc1 [HC-438]	C. sporogenes ATCC 19404	µg/mL	2.5
Cl.Clc1ccc(C(Cn2ccnc2)=NNc2ccccc2Br)cc1 [HC-486]	C. sporogenes ATCC 19404	µg/mL	5
Cl.Clc1cc(Cl)c(NN=C(Cn2ccnc2)c2ccccc2Cl)c(Cl)c1 [HC-523]	C. sporogenes ATCC 19404	µg/mL	5
Cl.Clc1ccc(NN=C(Cn2ccnc2)c2ccccc2)cc1Cl [HC-442]	C. sporogenes ATCC 19404	µg/mL	2.5
Cl.Clc1ccc(/C(Cn2ccnc2)=N\Nc2ccc(Cl)cc2Cl)cc1 [HC274]	C. sporogenes ATCC 19404	µg/mL	7.5
COc1ccc(C(Cn2ccnc2)=NNc2cc(Cl)ccc2Cl)cc1.Cl [HC-464]	C. sporogenes ATCC 19404	µg/mL	2.5
Clc1ccc(NN=C(Cn2ccnc2)c2ccc(Cl)cc2Cl)c(Cl)c1 [HC-380, hydrochloride]	C. sporogenes ATCC 19404	µg/mL	2.5
Cl.Clc1cccc(Cl)c1NN=C(Cn1ccnc1)c1ccc(Br)cc1 [HC-364]	C. sporogenes ATCC 19404	µg/mL	25
CC(C(=NNc1c(Cl)cc(Cl)cc1Cl)c1ccc(Cl)cc1)n1ccnc1 (stereo not shown) [HC-561, hydrochloride]	C. sporogenes ATCC 19404	µg/mL	1
Clc1ccc(NN=C(Cn2ccnc2)c2cc(Cl)ccc2Cl)c(Cl)c1 [HC-525, hydrochloride]	C. sporogenes ATCC 19404	µg/mL	2.5

###

Recorded MIC by entry
System: B. uniformis ATCC 8492
protocol_description: Antianaerobic activity, MIC by standard broth dilution method (Table II)
Type: cell-based
run_conditions: Bacteroides uniformis, ATCC8492, 24 h, Test 1; read-out: Minimal Inhibitory Concentration (MIC)
Where a name gives a salt, the structure may show the parent alone.

compound	MIC [µg/mL]
Cl.Fc1ccccc1C(Cn1ccnc1)=NNc1cccc(Cl)c1Cl [HC-507]	5
Cl.Clc1ccc(NN=C(Cn2ccnc2)c2ccccc2Cl)c(Cl)c1 [HC316]	2.5
CC(C(=NNc1c(Cl)cc(Cl)cc1Cl)c1ccc(Cl)cc1)n1ccnc1 (centres unmarked) [HC-561, hydrochloride]	5
Cl.FC(F)(F)c1cccc(C(Cn2ccnc2)=NNc2c(Cl)cccc2Cl)c1 [HC474]	10
Clc1ccc(NN=C(Cn2ccnc2)c2ccc(Cl)cc2Cl)c(Cl)c1 [HC-380, hydrochloride]	10

###

System: B. uniformis ATCC 8492
protocol_description: Antianaerobic activity, MIC by standard broth dilution method (Table II)
Type: cell-based
run_conditions: Bacteroides uniformis, ATCC8492, 24 h, Test 1; read-out: Minimal Inhibitory Concentration (MIC)
Where a name gives a salt, the structure may show the parent alone.

compound	MIC
Cl.Clc1ccc(C(Cn2ccnc2)=NNc2ccccc2Br)cc1	2.5 µg/mL
Cl.FC(F)(F)c1ccc(C(Cn2ccnc2)=NNc2c(Cl)cc(Cl)cc2Cl)cc1	2.5 µg/mL
Cl.Clc1cccc(Cl)c1NN=C(Cn1ccnc1)c1ccc(Br)cc1	10 µg/mL
Clc1ccc(NN=C(Cn2ccnc2)c2ccc(Br)cc2)c(Cl)c1 [HC-378, hydrochloride]	10 µg/mL
Clc1ccc(/C(Cn2ccnc2)=N/Nc2c(Cl)cccc2Cl)s1 [HC390, hydrochloride]	2.5 µg/mL
Clc1ccc(NN=C(Cn2ccnc2)c2ccc(Cl)s2)c(Cl)c1 [HC-363, hydrochloride]	2.5 µg/mL
Cl.Fc1ccc(C(Cn2ccnc2)=NNc2ccc(Cl)c(Cl)c2)cc1	5 µg/mL
Cl.Clc1ccc(/C(Cn2ccnc2)=N\Nc2ccc(Cl)cc2Cl)cc1	2.5 µg/mL
Cl.Clc1ccc(C(Cn2ccnc2)=NNc2c(Cl)cc(Cl)cc2Cl)c(Cl)c1	10 µg/mL
Cl.FC(F)(F)c1ccc(C(Cn2ccnc2)=NNc2c(Cl)cccc2Cl)cc1	5 µg/mL

###

protocol_description: in vivo
run_conditions: p.o., male mice, 7 day
Where a name gives a salt, the structure may show the parent alone.
Recorded LD12.5 by entry

molecule	LD12.5
Clc1ccc(/C(Cn2ccnc2)=N/Nc2c(Cl)cccc2Cl)s1 [HC390, hydrochloride]	> 1500 mg/kg
Nc1nc(=O)[nH]cc1F [5-Fluorocytosine]	500 mg/kg
Cl.Clc1ccc(/C(Cn2ccnc2)=N\Nc2ccc(Cl)cc2Cl)cc1 [HC274]	440 mg/kg
Clc1ccccc1C(c1ccccc1)(c1ccccc1)n1ccnc1 [Clotrimazole, reference compound]	500 mg/kg
C[C@@H]1[C@H](O)[C@@H](C)/C=C/C=C/C=C/C=C/C=C/C=C/C=C/[C@H](O[C@@H]2O[C@H](C)[C@@H](O)[C@H](N)[C@@H]2O)C[C@@H]2O[C@](O)(C[C@@H](O)C[C@@H](O)[C@H](O)CC[C@@H](O)C[C@@H](O)CC(=O)O[C@H]1C)C[C@H](O)[C@H]2C(=O)O [Amphotericin B]	280 mg/kg
Clc1ccc(COC(Cn2ccnc2)c2ccc(Cl)cc2Cl)c(Cl)c1 (stereo not shown) [Miconazole]	> 500 mg/kg
Clc1ccc(/C(Cn2ccnc2)=N/Nc2c(Cl)cccc2Cl)cc1 [HC344, hydrochloride]	> 1500 mg/kg

###

System: B. uniformis ATCC 8492
protocol_description: Antianaerobic activity, MIC by standard broth dilution method (Table II)
Type: cell-based
run_conditions: Bacteroides uniformis, ATCC8492, 24 h, Test 1; read-out: Minimal Inhibitory Concentration (MIC)
Where a name gives a salt, the structure may show the parent alone.
Doc: threshold 2 µg/mL (exclusive). Items with MIC beneath it return 1; others return -1.

compound	category_label
Clc1ccc(NN=C(Cn2ccnc2)c2cc(Cl)ccc2Cl)c(Cl)c1 [HC-525, hydrochloride]	-1
CC(C(=NNc1c(Cl)cccc1Cl)c1ccc(Cl)cc1)n1ccnc1 (stereo not drawn) [HC-403, hydrochloride]	-1
Cl.Clc1ccc(Cl)c(NN=C(Cn2ccnc2)c2ccccc2Cl)c1	-1
COc1ccc(C(Cn2ccnc2)=NNc2cc(Cl)ccc2Cl)cc1.Cl	-1
Cl.Clc1cc(Cl)c(NN=C(Cn2ccnc2)c2ccccc2Cl)c(Cl)c1	-1
Cl.Clc1cccc(Cl)c1NN=C(Cn1ccnc1)c1ccc(Br)s1	1
Cl.Clc1ccc(NN=C(Cn2ccnc2)c2ccccc2)cc1Cl	-1
Cl.Clc1ccc(NN=C(Cn2ccnc2)c2ccccc2)c(Cl)c1	-1
CC(C(=NNc1ccc(Cl)cc1Cl)c1ccc(Cl)cc1)n1ccnc1 (stereo not drawn) [HC-433, hydrochloride]	1

###

System: Trichophyton mentagrophytes
protocol_description: Experimental Trichophyton mentagrophytes infection in guinea pigs
Assay type: in vivo
run_conditions: topical, 1% w/w in Carbopol gel once daily days 5-10, day 10 after infection
Counter-ions that a name gives are not always drawn.
metric: Disease rating (degree of hair loss, erythema, desquamation, Max. = 100)

compound	readout_number
CC(=O)N1CCN(c2ccc(OCC3COC(Cn4ccnc4)(c4ccc(Cl)cc4Cl)O3)cc2)CC1 (stereo not shown) [Ketoconazole, reference compound]	56.4
Clc1ccc(/C(Cn2ccnc2)=N/Nc2c(Cl)cccc2Cl)cc1 [HC344, hydrochloride]	24.6
Cl.Clc1ccc(/C(Cn2ccnc2)=N\Nc2ccc(Cl)cc2Cl)cc1 [HC274]	35.4
Clc1ccccc1C(c1ccccc1)(c1ccccc1)n1ccnc1 [Clotrimazole, reference compound]	51.9

###

Recorded MIC by entry
Tested on: T. vaginalis ATCC 30001
protocol_description: Antianaerobic activity, MIC by standard broth dilution method (Table II)
Format: cell-based
run_conditions: Trichomonas vaginalis, ATCC30001, 24 h, Test 3; read-out: Minimal Inhibitory Concentration (MIC)
Counter-ions that a name gives are not always drawn.

molecule	qualifier_operator	MIC, µg/mL
CC(C(=NNc1c(Cl)cc(Cl)cc1Cl)c1ccc(Cl)cc1)n1ccnc1 (stereo not shown) [HC-561, hydrochloride]	>	100
Cl.Clc1ccc(/C(Cn2ccnc2)=N\Nc2ccc(Cl)cc2Cl)cc1 [HC274]	>	10
Clc1ccc(NN=C(Cn2ccnc2)c2cc(Cl)ccc2Cl)c(Cl)c1 [HC-525, hydrochloride]	=	50
Cl.FC(F)(F)c1ccc(C(Cn2ccnc2)=NNc2c(Cl)cc(Cl)cc2Cl)cc1 [HC-482]	=	25
Cl.FC(F)(F)c1cccc(C(Cn2ccnc2)=NNc2c(Cl)cccc2Cl)c1 [HC474]	=	50
CC(C(=NNc1c(Cl)cccc1Cl)c1ccc(Cl)cc1)n1ccnc1 (stereo not shown) [HC-403, hydrochloride]	<	50
Cl.Clc1ccc(C(Cn2ccnc2)=NNc2c(Cl)cc(Cl)cc2Cl)c(Cl)c1 [HC-420]	=	50
Cl.Clc1ccc(NN=C(Cn2ccnc2)c2ccccc2)cc1Cl [HC-442]	=	100
Clc1ccc(/C(Cn2ccnc2)=N/Nc2c(Cl)cccc2Cl)s1 [HC390, hydrochloride]	>	50
CC(C(=NNc1ccc(Cl)cc1Cl)c1ccc(Cl)cc1)n1ccnc1 (stereo not shown) [HC-433, hydrochloride]	=	50
Cl.FC(F)(F)c1ccc(C(Cn2ccnc2)=NNc2c(Cl)cccc2Cl)cc1 [HC-438]	=	75
Cl.Clc1ccc(NN=C(Cn2ccnc2)c2ccccc2)c(Cl)c1 [HC-306]	=	25
Clc1ccc(NN=C(Cn2ccnc2)c2ccc(Br)cc2)c(Cl)c1 [HC-378, hydrochloride]	=	50
